molecular target: MC1 receptor (Mus musculus, UniProt Q01727); construct: B16 mouse melanoma cells were used, which endogenously express the (mouse) MC1 receptor; endogenous in cells; assay: Affinity for the MC1-receptor, 125I-NDP-αMSH binding assay; conditions: B16 mouse melanoma cells endogenously expressing mouse MC1; displacement of 125I-NDP-MSH; nb = non-binding, i.e. no affinity; read-out: Affinity for MC-receptors, Ki, MC1
Sequence (Q01727 whole entry): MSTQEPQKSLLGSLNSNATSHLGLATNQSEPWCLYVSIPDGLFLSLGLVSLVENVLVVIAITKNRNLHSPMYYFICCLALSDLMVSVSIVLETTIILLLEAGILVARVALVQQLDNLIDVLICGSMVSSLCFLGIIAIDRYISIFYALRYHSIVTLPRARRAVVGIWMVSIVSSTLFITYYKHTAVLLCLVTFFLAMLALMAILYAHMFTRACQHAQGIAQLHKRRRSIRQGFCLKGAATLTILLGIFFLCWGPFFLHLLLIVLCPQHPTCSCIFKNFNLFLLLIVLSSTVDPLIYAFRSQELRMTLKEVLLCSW
quantity-measured: Ki (nM)

[a] N=C(N)NN=Cc1cccc(Cl)c1I [1:1]
[b] N=C(N)NN=Cc1ccc([N+](=O)[O-])c(Cl)c1Cl [1:4]
[c] N=C(N)NN=Cc1c(Br)cccc1Br [1:6, N-(2,6-Dibromobenzylideneamino)guanidine]
Input line: Please rank everything listed above by Ki, with the minimum value first. In your reply, arrange the labels in the requested order.
Output line: a, c, b
(a: 500 nM, c: 800 nM, b: 3600 nM)

====

Structures can show the parent of a compound that is named as a salt.
This listing pairs compounds with measured melting point.

compound: COc1cccc(OC)c1C=NNC(=N)N (as salt: salt)
result: 158 to 160 °C

Input line: Quick check: melting point of N=C(N)NN=Cc1ccc(I)cc1Br (as salt: HCl) ?
Output line: 236 to 239 °C

Input line: Which melting point reading was recorded for the compound N=C(N)NN=Cc1ccc([N+](=O)[O-])c(Cl)c1Cl (as salt: HCl) ?
Output line: 258 to 262 °C

Input line: Would you kindly share the measured melting point for N=C(N)NN=Cc1cccc(O)c1O (as salt: salt) ?
Output line: 223 to 224.5 °C

Input line: Reported melting point for N=C(N)NN=Cc1cc(F)ccc1F (as salt: salt) : what is it?
Output line: 211 to 212 °C

Input line: Which melting point value is on record for CCOc1cc(C=NNC(=N)N)c([N+](=O)[O-])c(C(F)(F)F)c1 (as salt: HCl) ?
Output line: 92 to 98 °C

====

Structures can show the parent of a compound that is named as a salt.
The following compounds are shown together with reported melting point values.

Input line: Which melting point is listed for N=C(N)NN=Cc1cccc(Cl)c1I (as salt: salt) ?
Output line: 231 to 232.5 °C

Input line: I would be grateful if you could share the reported melting point for N=C(N)NN=Cc1c(Br)cccc1Br (as salt: HCl) .
Output line: 178 to 183 °C

Input line: Which value of melting point has been reported for N=C(N)NN=Cc1ccc(Br)cc1I (as salt: salt) in the records?
Output line: 202 to 207 °C
